Target: CSF-1R (Homo sapiens, UniProt P07333)
Sequence (P07333 20-972): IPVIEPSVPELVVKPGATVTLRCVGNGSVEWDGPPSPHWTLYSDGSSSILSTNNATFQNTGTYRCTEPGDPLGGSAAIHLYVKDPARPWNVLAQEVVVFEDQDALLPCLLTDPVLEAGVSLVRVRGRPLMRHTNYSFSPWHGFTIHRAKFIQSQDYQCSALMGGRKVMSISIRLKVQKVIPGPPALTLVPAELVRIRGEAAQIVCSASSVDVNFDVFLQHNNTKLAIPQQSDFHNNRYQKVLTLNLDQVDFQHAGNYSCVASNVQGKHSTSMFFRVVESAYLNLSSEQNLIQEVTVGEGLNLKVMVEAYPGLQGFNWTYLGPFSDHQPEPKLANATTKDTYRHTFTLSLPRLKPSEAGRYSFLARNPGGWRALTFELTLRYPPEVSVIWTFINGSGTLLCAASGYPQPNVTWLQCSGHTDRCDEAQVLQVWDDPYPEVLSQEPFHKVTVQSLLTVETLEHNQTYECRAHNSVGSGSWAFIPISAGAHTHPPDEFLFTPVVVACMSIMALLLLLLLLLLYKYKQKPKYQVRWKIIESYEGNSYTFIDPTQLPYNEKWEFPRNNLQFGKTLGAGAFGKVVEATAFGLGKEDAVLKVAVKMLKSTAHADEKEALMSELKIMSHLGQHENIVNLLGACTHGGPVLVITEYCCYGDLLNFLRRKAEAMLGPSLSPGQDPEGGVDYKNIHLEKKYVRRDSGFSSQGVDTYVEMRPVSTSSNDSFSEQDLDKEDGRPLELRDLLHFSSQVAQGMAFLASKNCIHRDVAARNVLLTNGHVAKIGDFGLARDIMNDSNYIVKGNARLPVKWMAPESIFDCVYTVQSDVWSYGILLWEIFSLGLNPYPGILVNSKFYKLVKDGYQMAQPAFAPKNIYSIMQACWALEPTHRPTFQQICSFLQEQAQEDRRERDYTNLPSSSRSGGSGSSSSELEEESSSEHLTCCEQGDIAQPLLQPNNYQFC
Assay: Peptide (non-phosphorylated) assay, fluorescence polarization competition immunoassay
Type: biochemical
Conditions: 0.7 nM CSF-1R, 308 μM SYEGNSYTFIDPTQ peptide, 1 mM ATP, 80 min; mean of at least three determinations; read-out: c-fms Peptide IC50
pIC50: −log10 of the molar value.
readout: pIC50

Solved cases below.
compound: CONC(=O)c1cn(-c2ccc3c(c2)CCC3)c2nc(Nc3ccc(C4CCN(C(C)C)CC4)cc3)ncc2c1=O
experimental system: CSF-1R (Homo sapiens, UniProt P07333)
pIC50: 9.24
--
compound: CONC(=O)c1cn(C2CCCC2)c2nc(Nc3ccc(CCN4CCN(C)CC4)cc3)ncc2c1=O
experimental system: CSF-1R (Homo sapiens, UniProt P07333)
pIC50: 8.82
--
compound: CONC(=O)c1cn(-c2ccc3c(c2)CCC3)c2nc(Nc3cccc(N4CCN(S(C)(=O)=O)CC4)c3)ncc2c1=O
experimental system: CSF-1R (Homo sapiens, UniProt P07333)
pIC50: 8.74
--
compound: CC(C)ONC(=O)c1cn(C2CCCC2)c2nc(Nc3ccc(CCN4CCCC4)cc3)ncc2c1=O
experimental system: CSF-1R (Homo sapiens, UniProt P07333)
pIC50: 8.39
--
compound: CONC(=O)c1cn(-c2ccc3c(c2)CCC3)c2nc(Nc3ccc(C4CCN(CC(=O)O)CC4)cc3)ncc2c1=O [Cpd 85]
experimental system: CSF-1R (Homo sapiens, UniProt P07333)
pIC50: 8.66

A. NC(=O)c1cn(-c2ccc3c(c2)CCC3)c2nc(Nc3ccc(C(=O)N4CCCC4)cc3)ncc2c1=O
B. CC(C)ONC(=O)c1cn(C2CCCCC2)c2nc(Nc3ccc(CCN4CCCC4)cc3)ncc2c1=O
C. CONC(=O)c1cn(C2CCCC2)c2nc(Nc3ccc(CN4CCCC4=O)cc3)ncc2c1=O
Req: Provide the items ranked by increasing pIC50. Give me the labels in the order the question wants.
Resp: A, C, B

====

Biological target: CSF-1R (Homo sapiens)
Test: Peptide (non-phosphorylated) assay, fluorescence polarization competition immunoassay
Type: biochemical
Details: 0.7 nM CSF-1R, 308 μM SYEGNSYTFIDPTQ peptide, 1 mM ATP, 80 min; mean of at least three determinations; read-out: c-fms Peptide IC50
pIC50: −log10 of the molar value.
readout: pIC50

Solved cases below.
compound: CNCCS(=O)(=O)c1cccc(Nc2ncc3c(=O)c(C(=O)NOC)cn(-c4ccc5c(c4)CCC5)c3n2)c1
experimental system: CSF-1R (Homo sapiens)
pIC50: 9.15
--
compound: CONC(=O)c1cn(-c2ccc(C)c(C)c2)c2nc(Nc3ccc(CCN4CCN(C)CC4)cc3)ncc2c1=O
experimental system: CSF-1R (Homo sapiens)
pIC50: 9.10
--
compound: CCc1ccc(-n2cc(C(=O)NOC)c(=O)c3cnc(Nc4ccc(OC5CCN(C)CC5)cc4)nc32)cc1
experimental system: CSF-1R (Homo sapiens)
pIC50: 9.52

I. CCc1ccc(-n2cc(C(=O)NOC)c(=O)c3cnc(Nc4ccc(C5CCCCN5CC)cc4)nc32)cc1 (stereo not shown)
II. CONC(=O)c1cn(-c2ccc3c(c2)CCC3)c2nc(Nc3cccc(C4CCN(C(C)=O)CC4)c3)ncc2c1=O
III. CONC(=O)c1cn(-c2ccc3c(c2)CCC3)c2nc(Nc3cccc(C(=O)NCCN4CCOCC4)c3)ncc2c1=O
Req: Provide the items ranked by increasing pIC50. Give me the labels in the order the question wants.
Resp: III, II, I

====

Target: UniProt P07333
Test: Peptide (non-phosphorylated) assay, fluorescence polarization competition immunoassay
Format: biochemical
Conditions: 0.7 nM CSF-1R, 308 μM SYEGNSYTFIDPTQ peptide, 1 mM ATP, 80 min; mean of at least three determinations; read-out: c-fms Peptide IC50
pIC50: −log10 of the molar value.
readout: pIC50

Solved cases below.
structure as smiles: CONC(=O)c1cn(-c2ccc3c(c2)CCC3)c2nc(Nc3ccc(CCN4C5CCC4CC5)cc3)ncc2c1=O
pIC50: 9.34
--
structure as smiles: CCc1ccc(-n2cc(C(=O)NOC)c(=O)c3cnc(Nc4ccc5c(c4)OCCOCCOCCOCCOCCO5)nc32)cc1
pIC50: 9.40
--
structure as smiles: CONC(=O)c1cn(-c2ccc3c(c2)CCC3)c2nc(Nc3cccc(NC(=O)CN(C)C)c3)ncc2c1=O
pIC50: 9.38

I. C#Cc1ccc(-n2cc(C(N)=O)c(=O)c3cnc(Nc4ccc(CCN5CCN(C)CC5)cc4)nc32)cc1
II. CONC(=O)c1cn(C2CCCCC2)c2nc(Nc3ccc(CN4CCCC4=O)cc3)ncc2c1=O
III. CCc1ccc(-n2cc(C(=O)NOC(CC)CC)c(=O)c3cnc(Nc4ccc(CCN5CCN(C)CC5)cc4)nc32)cc1
IV. CONC(=O)c1cn(-c2ccc3c(c2)CCC3)c2nc(Nc3ccc(CCN4CCC(O)CC4)cc3)ncc2c1=O
Req: Provide the items ranked by increasing pIC50. Give me the labels in the order the question wants.
Resp: I, III, II, IV
(I: 7.85, III: 8.31, II: 8.89, IV: 9.19)

1. CONC(=O)c1cn(-c2ccc3c(c2)CCC3)c2nc(Nc3ccc(CCN4CCC(=O)CC4)cc3)ncc2c1=O
2. CONC(=O)c1cn(-c2ccc3c(c2)CCC3)c2nc(Nc3ccc(C4CCN(CCC(=O)O)CC4)cc3)ncc2c1=O
Req: Could you point out whether the larger pIC50 belongs to 1 or to 2 ? Returns: label corresponding to the selected item.
Resp: 1
(1: 9.00, 2: 8.70)

I. CONC(=O)c1cn(-c2ccc3c(c2)CCC3)c2nc(Nc3ccc(CN4CCCC4=O)cc3)ncc2c1=O
II. CONC(=O)c1cn(-c2cnc3c(c2)CCC3)c2nc(Nc3ccc(CCO)cc3)ncc2c1=O
III. CCc1ccc(-n2cc(C(=O)NOC)c(=O)c3cnc(Nc4ccc(C5CCN(CCO)CC5)cc4)nc32)cc1
IV. CCc1ccc(-n2cc(C(=O)NOC)c(=O)c3cnc(Nc4ccc(OC5CCN(CC(F)(F)F)CC5)cc4)nc32)cc1
Req: Provide the items ranked by increasing pIC50. Give me the labels in the order the question wants.
Resp: II, IV, III, I
(II: 8.00, IV: 8.28, III: 8.74, I: 9.62)

P. CONC(=O)c1cn(-c2ccc3c(c2)CCC3)c2nc(Nc3ccc(CC(=O)NN4CCCCC4)cc3)ncc2c1=O
Q. CCc1ccc(-n2cc(C(=O)NOC)c(=O)c3cnc(Nc4ccc(OCCCOC)c(OCCCOC)c4)nc32)cc1
Req: Could you point out whether the larger pIC50 belongs to P or to Q ? Returns: label corresponding to the selected item.
Resp: Q

====

Target: CSF-1R (Homo sapiens)
Assay: Peptide (non-phosphorylated) assay, fluorescence polarization competition immunoassay
Assay type: biochemical
Conditions: 0.7 nM CSF-1R, 308 μM SYEGNSYTFIDPTQ peptide, 1 mM ATP, 80 min; mean of at least three determinations; read-out: c-fms Peptide IC50
readout: IC50 (nM)

Solved cases below.
compound: CONC(=O)c1cn(-c2ccc3c(c2)CCC3)c2nc(Nc3ccc(CCS(=O)(=O)NC(C)C)cc3)ncc2c1=O
experimental system: CSF-1R (Homo sapiens)
IC50 / nM: 0.95
--
compound: CONC(=O)c1cn(-c2ccc3c(c2)CCC3)c2nc(Nc3cccc(C4(O)CCCNC4)c3)ncc2c1=O (stereo not drawn)
experimental system: CSF-1R (Homo sapiens)
IC50 / nM: 0.66
--
compound: CONC(=O)c1cn(-c2cnc3c(c2)CCC3)c2nc(Nc3ccc(C4CCN(C)CC4)cc3)ncc2c1=O
experimental system: CSF-1R (Homo sapiens)
IC50 / nM: 7
--
compound: CONC(=O)c1cn(C2CCCCC2)c2nc(Nc3ccc(CCN4CCN(C)CC4)cc3)ncc2c1=O
experimental system: CSF-1R (Homo sapiens)
IC50 / nM: 0.3
--
compound: CONC(=O)c1cn(C2CCCCC2)c2nc(Nc3ccc(C[C@H]4COC(=O)N4)cc3)ncc2c1=O
experimental system: CSF-1R (Homo sapiens)
IC50 / nM: 1.5
--
compound: CONC(=O)c1cn(C2CCCC2)c2nc(Nc3ccc(C4CCNCC4)cc3)ncc2c1=O
experimental system: CSF-1R (Homo sapiens)
IC50 / nM: 1.9

I. CONC(=O)c1cn(-c2ccc3c(c2)CCC3)c2nc(Nc3ccc(CCN4CCC[C@@H]4C(=O)O)cc3)ncc2c1=O
II. CCc1ccc(-n2cc(C(=O)NOC(C)C)c(=O)c3cnc(Nc4ccc(C5CCN(CCCO)CC5)cc4)nc32)cc1
Req: Would you mind telling me which has the lower recorded IC50 between I and II ? Returns: label corresponding to the selected item.
Resp: II

P. CONC(=O)c1cn(-c2ccc3c(c2)CCC3)c2nc(Nc3ccc(C4CCN(CC(=O)NS(C)(=O)=O)CC4)cc3)ncc2c1=O
Q. NC(=O)c1cn(-c2ccc3c(c2)CCC3)c2nc(Nc3ccc(CCN4CCCC4)cc3)ncc2c1=O
R. CCONC(=O)c1cn(C2CCCCC2)c2nc(Nc3ccc(C4CCN(C(C)=O)CC4)cc3)ncc2c1=O
S. CC(C)NC(=O)c1cn(-c2ccc3c(c2)CCC3)c2nc(Nc3cccc(N4CCNCC4)c3)ncc2c1=O
Req: Provide the items ranked by increasing IC50. Give me the labels in the order the question wants.
Resp: R, Q, P, S
(R: 1 nM, Q: 1.5 nM, P: 2.4 nM, S: 4.5 nM)

1. CCc1ccc(-n2cc(C(=O)NOC)c(=O)c3cnc(Nc4ccc(C5CCN(S(N)(=O)=O)CC5)cc4)nc32)cc1
2. C#Cc1ccc(-n2cc(C(=O)NOC)c(=O)c3cnc(Nc4ccc(CCN5CCCC5)cc4)nc32)cc1
3. CONC(=O)c1cn(-c2ccc3c(c2)CCC3)c2nc(Nc3ccc(CCNCCS(C)(=O)=O)cc3)ncc2c1=O
4. CCc1ccc(-n2cc(C(=O)NOC)c(=O)c3cnc(Nc4ccc(C5CCCCN5)cc4)nc32)cc1 (stereo not drawn)
Req: Hello, I need these entries ordered by IC50, highest reading first. Thanks! Give me the labels in the order the question wants.
Resp: 2, 1, 3, 4

P. CCc1ccc(-n2cc(C(=O)NOC)c(=O)c3cnc(Nc4cccc(OCCOC)c4)nc32)cc1
Q. CONC(=O)c1cn(-c2ccc3c(c2)CCC3)c2nc(Nc3ccc(C4CCN(CC(=O)O)CC4)cc3)ncc2c1=O [Cpd 219]
Req: Would you mind telling me which has the lower recorded IC50 between P and Q ? Returns: label corresponding to the selected item.
Resp: P
